Provenance of the data: the RNAGym collection of RNA variant scans (doi:10.1073/pnas.2313332121)

B1: TPR 5TU (parent)
chain: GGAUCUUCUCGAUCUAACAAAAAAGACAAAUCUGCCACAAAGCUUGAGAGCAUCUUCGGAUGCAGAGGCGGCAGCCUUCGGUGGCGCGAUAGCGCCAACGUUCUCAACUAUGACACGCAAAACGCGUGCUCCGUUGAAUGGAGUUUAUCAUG

# Variants of: B1
# assay_text: polymerase ribozyme fitness, log enrichment relative to wild type (log ratio); higher = more active; in vitro selection for triplet polymerase activity
Fewer inactive variants are shown than the library holds.
measured_attribute: polymerase ribozyme fitness (log ratio)
Please state the value as a number alone, without comment.

Known results for variants:
# variant_description, polymerase ribozyme fitness (log ratio)
records = [
    ("U45G A52U", -3.15),
    ("G25U C69G U146A", -4.05),
    ("U13A G48U U56A G84A", -1.28),
    ("A21U A40G A60G C96G U146G", -3.99),
    ("C27U C93U U104A", -3.11),
    ("C96G U134G", -1.64),
    ("G48C A49C A122U", -3.93),
    ("C72U C87U U101G G124C", -1.6),
]

Prompt line: Query: polymerase ribozyme fitness (log ratio); subject: A49C
Response line: -4.19

Prompt line: Query: polymerase ribozyme fitness (log ratio); subject: G58A A73G C116U
Response line: 0.431

Prompt line: Query: polymerase ribozyme fitness (log ratio); subject: A17C A19U
Response line: 0.475

Prompt line: Query: polymerase ribozyme fitness (log ratio); subject: A37C G84A U101G G126C U135C
Response line: -3.6
